- target: full-length human RORγt (Homo sapiens (Human), UniProt P51449)
- Sequence (P51449 other isoform, or with tags, fused parts or gaps): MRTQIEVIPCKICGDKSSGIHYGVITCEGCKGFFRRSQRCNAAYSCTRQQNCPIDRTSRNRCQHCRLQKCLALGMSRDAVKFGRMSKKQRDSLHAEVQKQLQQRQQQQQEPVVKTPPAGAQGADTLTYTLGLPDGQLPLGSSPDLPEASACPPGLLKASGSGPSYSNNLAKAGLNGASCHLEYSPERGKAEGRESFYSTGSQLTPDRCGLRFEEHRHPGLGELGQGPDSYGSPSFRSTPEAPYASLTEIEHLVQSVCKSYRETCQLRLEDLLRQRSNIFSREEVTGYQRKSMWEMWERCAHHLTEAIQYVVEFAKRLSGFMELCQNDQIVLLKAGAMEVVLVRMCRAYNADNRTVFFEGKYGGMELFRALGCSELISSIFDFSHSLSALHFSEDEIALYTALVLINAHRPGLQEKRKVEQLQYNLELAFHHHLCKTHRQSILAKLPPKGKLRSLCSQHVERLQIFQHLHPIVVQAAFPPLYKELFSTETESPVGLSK
- method notes: RORγt (full-length human) reporter assay, Conditions B or C
- Type: cell-based
- condition description: Conditions B or C; read-out: RORγt (FL) Reporter Assay B or C, IC50
pIC50: −log10 of the molar value.
measurement name: pIC50

| compound | pIC50 |
| --- | --- |
| C[C@@H](Nc1cc(C(F)(F)F)c(-c2sc(C(=O)NCC(C)(C)O)nc2C(=O)N2CCC(F)CC2)cn1)C1CC1 | 7.66 |
| C[C@H](Nc1cc(C(F)(F)F)c(-c2sc(C(=O)N[C@@H](C)C(C)(C)O)nc2C(=O)N2CC(F)(F)C[C@@H]2C)cn1)C1CC1 | 7.77 |
| C[C@H]1CCCN1C(=O)c1nc(C(=O)NC2CS(=O)(=O)C2)sc1-c1cnc(NC2CCCC2)cc1C(F)F | 7.89 |
| C[C@H]1CC(F)(F)CN1C(=O)c1nc(C(=O)NCC(C)(C)O)sc1-c1cnc(NC(C2CC2)C2CC2)cc1C(F)F | 8.18 |
| CC[C@H](Nc1cc(C(F)F)c(-c2sc(C(=O)N[C@@H](C)C(C)(C)O)nc2C(=O)N2C3CCC2CC3)cn1)C(F)(F)F | 7.80 |
| C[C@H]1CCCN1C(=O)c1nc(C(=O)NCC(C)(C)O)sc1-c1cnc(NCC(C)(C)C)cc1C(F)(F)F | 7.54 |
| C[C@H](NC(=O)c1nc(C(=O)N2CCC[C@@H]2C)c(-c2cnc(N[C@@H](C)C(F)(F)F)cc2C(F)F)s1)C(C)(C)O | 6.92 |
| CC(C)(O)CNC(=O)c1nc(C(=O)N2C3CCC2CC3)c(-c2cnc(NC(C3CC3)C3CC3)cc2C(F)F)s1 | 8.26 |

1. CC[C@@H](Nc1cc(C(F)F)c(-c2sc(C(=O)NCC(C)(C)O)nc2C(=O)N2CCC[C@@H]2C)cn1)C1CC1 (relative stereo)
2. C[C@H](NC(=O)c1nc(C(=O)N2CCC[C@@H]2C)c(-c2cnc(NC(C)(C)C)cc2C(F)(F)F)s1)[C@@H](C)O (relative stereo)
3. C[C@H]1CCCCN1C(=O)c1nc(C(=O)NCC(C)(C)O)sc1-c1cnc(NC2CCCCC2)cc1C1CC1
4. C[C@H]1CC(F)(F)CN1C(=O)c1nc(C(=O)NC2COCC2O)sc1-c1cnc(NC2(C)CCC2)cc1C(F)(F)F (stereo partly shown) [Example 182]
Qu. Rank ascending by pIC50. Put the labels in the requested order and write them down.
Ans. 1, 2, 4, 3
(1: 6.92, 2: 7.54, 4: 8.09, 3: 8.42)
